Test: Distribution coefficient (D7.4), shake-flask method, n-octanol/buffered aqueous solution pH 7.40
Format: physicochemical
Settings: n-octanol/PBS pH 7.4, 25 °C, read-out: logD7.4 (proligand)
Readout type: logD

Compound: C[N+](C)(C)Cc1ccc(O)c(/C=N/NC(N)=S)c1 [[H2L^H]Cl]
logD: -0.84

A: C[N+](C)(C)Cc1ccc(O)c(/C=N/NC(=S)Nc2ccccc2)c1 [[H2L^Ph]Cl]
B: CCNC(=S)N/N=C/c1cc(C[N+](C)(C)C)ccc1O [[H2L^Et]Cl]
C: CNC(=S)N/N=C/c1cc(C[N+](C)(C)C)ccc1O [[H2L^Me]Cl]
Input line: Sort entries by logD from minimum to maximum value. Sort and list the labels as requested.
Output line: C, B, A

---

Assay: Solution stability of copper(II) complexes, UV/Vis spectrophotometric titration
Type: physicochemical
Conditions: logβ [CuL]+ − pKa (H2L+)
Readout type: logKderived [CuLH−1]+

Molecule: CCNC(=S)N/N=C/c1cc(C[N+](C)(C)C)ccc1O [[H2L^Et]Cl]
Assay result: 0.36

a: CNC(=S)N/N=C/c1cc(C[N+](C)(C)C)ccc1O [[H2L^Me]Cl]
b: C[N+](C)(C)Cc1ccc(O)c(/C=N/NC(=S)Nc2ccccc2)c1 [[H2L^Ph]Cl]
Input line: Compare a and b by numeric logKderived [CuLH−1]+ and name the larger one. Please identify the chosen entry by its label.
Output line: b

---

Target: OCT1 (Homo sapiens, UniProt O15245)
Construct: expressed in transfected cells
Sequence (O15245 whole entry): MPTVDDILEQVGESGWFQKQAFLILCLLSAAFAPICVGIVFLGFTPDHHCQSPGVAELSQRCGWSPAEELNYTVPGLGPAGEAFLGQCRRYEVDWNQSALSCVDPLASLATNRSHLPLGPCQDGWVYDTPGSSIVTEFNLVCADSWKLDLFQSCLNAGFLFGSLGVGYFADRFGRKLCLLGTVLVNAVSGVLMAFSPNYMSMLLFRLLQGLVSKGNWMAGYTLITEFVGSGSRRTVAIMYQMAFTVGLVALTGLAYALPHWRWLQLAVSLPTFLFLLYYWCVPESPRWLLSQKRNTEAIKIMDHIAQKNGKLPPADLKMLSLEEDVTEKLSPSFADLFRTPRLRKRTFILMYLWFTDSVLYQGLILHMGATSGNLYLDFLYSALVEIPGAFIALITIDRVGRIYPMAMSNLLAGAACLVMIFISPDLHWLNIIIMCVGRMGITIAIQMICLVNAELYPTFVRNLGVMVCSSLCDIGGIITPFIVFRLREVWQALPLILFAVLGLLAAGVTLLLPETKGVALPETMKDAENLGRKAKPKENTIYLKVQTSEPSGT
Assay: [3H]-MPP+ uptake inhibition assay in HEK-293 cells
Format: cell-based
Settings: HEK-293 cells stably expressing human OCT1, pH 7.3, probe [3H]-MPP+ (50 nM), 10 min uptake
Protocol: HEK–293 cells (LGC Standards GmbH, Germany) stably expressing human isoforms of wild type organic cation transporters 1–3 (OCT1–3) were cultured in Dulbecco’s modified Eagle’s medium (DMEM; Sigma-Aldrich) with high glucose (4.5 g/L) and L-glutamine (584 mg/L) supplemented with 10% foetal calf serum (FCS; Biowest) and penicillin/streptomycin mixture (50 mg/L; Sigma/Aldrich) at 37 °C in a humidified atmosphere (5% CO2). […]
Readout type: IC50 at 10 min (µM)
Give the quantity in µM, number only.

Input line: Look up and state reported IC50 at 10 min for C[N+](C)(C)Cc1ccc(O)c(/C=N/NC(N)=S)c1 [[H2L^H]Cl]
Output line: 740

---

Experiment: Solution stability of copper(II) complexes, UV/Vis spectrophotometric titration
Format: physicochemical
Conditions: copper(II) complex of the proligand; I = 0.1 M (KCl); t = 25 °C
Method: An Agilent Carry 8454 diode array spectrophotometer was used to record the UV/Vis spectra in the interval 200–800 nm. The path length was 1 cm. Proton dissociation constants (pKa) of the TSC ligands, the overall stability constants of the copper(II) monoligand complexes (logβ) and the individual spectra of the species in the various protonation states and stoichiometry were calculated by the computer program PSEQUAD [44]. […]
Readout type: logβ [Cu(HL)]2+

Compound: CNC(=S)N/N=C/c1cc(C[N+](C)(C)C)ccc1O [[H2L^Me]Cl]
logβ [Cu(HL)]2+: 11.73
--
Compound: C[N+](C)(C)Cc1ccc(O)c(/C=N/NC(N)=S)c1 [[H2L^H]Cl]
logβ [Cu(HL)]2+: 12.00
--
Compound: CCNC(=S)N/N=C/c1cc(C[N+](C)(C)C)ccc1O [[H2L^Et]Cl]
logβ [Cu(HL)]2+: 11.66
--
Compound: C[N+](C)(C)Cc1ccc(O)c(/C=N/NC(=S)Nc2ccccc2)c1 [[H2L^Ph]Cl]
logβ [Cu(HL)]2+: 11.26
